- methodSummary: self-splicing fitness, log relative to wild type (ln ratio); higher = more splicing; Tetrahymena group I intron in knt gene, E. coli kanamycin selection, DiMSum; sequences stand for … in CUCUCU…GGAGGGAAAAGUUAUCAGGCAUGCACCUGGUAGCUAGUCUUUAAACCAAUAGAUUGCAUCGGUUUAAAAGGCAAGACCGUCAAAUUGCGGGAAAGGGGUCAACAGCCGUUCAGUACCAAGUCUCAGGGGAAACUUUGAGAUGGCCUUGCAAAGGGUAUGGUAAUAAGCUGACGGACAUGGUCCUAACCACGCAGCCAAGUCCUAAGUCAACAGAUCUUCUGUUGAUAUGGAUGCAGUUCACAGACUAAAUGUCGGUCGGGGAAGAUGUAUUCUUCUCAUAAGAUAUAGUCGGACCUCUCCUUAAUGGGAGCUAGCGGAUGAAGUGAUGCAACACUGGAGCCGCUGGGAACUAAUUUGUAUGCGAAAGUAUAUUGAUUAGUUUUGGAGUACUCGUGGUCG;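 note: selection with 25 µg/mL kanamycin versus none on LB agar overnight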
- conditionContext: 30 °C
Each entry belongs to exactly one class, chosen by where its self-splicing fitness (ln) falls: low interval = under -3, middle interval = from -3 up to -2, high interval = -2 and over

sequenceRecord	categoryLabel
ACAUAGCAAUAUUACGUAAC	low interval
GGUAAGCAAUAUUACGAUCA	high interval
UUAAAGCAAUAUUACGGUCG	high interval
GUACAGCAAUAUUACGGGAC	high interval
GCUUAGCAAUAUUACGGCGG	low interval
GAAUAGCAAUAUUACGUUCA	high interval
UGUCAGCAAUAUUACGGCGG	high interval
CCCGAGCAAUAUUACGAAUG	middle interval
AUAAAGCAAUAUUACGUAAG	middle interval
UGGAAGCAAUAUUACGUAUA	middle interval
ACCGAGCAAUAUUACGUCUC	low interval
AGAAAGCAAUAUUACGGAUC	high interval
ACCGAGCAAUAUUACGUCAU	low interval
ACGAAGCAAUAUUACGACGC	high interval
CGUAAGCAAUAUUACGAUAG	high interval
AUCCAGCAAUAUUACGCACA	high interval
UCCAAGCAAUAUUACGGGAG	middle interval
AUCAAGCAAUAUUACGAAAC	low interval
UAGCAGCAAUAUUACGUUAA	middle interval
CAAUAGCAAUAUUACGUCGC	low interval
GUGGAGCAAUAUUACGCUAA	middle interval
GCUCAGCAAUAUUACGCAGG	high interval
UGCCAGCAAUAUUACGCGCA	middle interval
UGUUAGCAAUAUUACGCGUU	high interval
GCUCAGCAAUAUUACGAAAC	high interval
AGCGAGCAAUAUUACGGAAC	low interval
CAGCAGCAAUAUUACGCAGU	low interval
GCCAAGCAAUAUUACGAUGA	low interval
GGCCAGCAAUAUUACGACCG	high interval
UGAAAGCAAUAUUACGUCCU	high interval
ACGUAGCAAUAUUACGUGAG	low interval
CAGCAGCAAUAUUACGCUAG	middle interval
ACAAAGCAAUAUUACGAACC	high interval
AGGCAGCAAUAUUACGGCAC	high interval
AAUAAGCAAUAUUACGAAAU	middle interval
CGUCAGCAAUAUUACGGCGU	low interval
CUAGAGCAAUAUUACGGGGA	middle interval
GUACAGCAAUAUUACGUCUA	high interval
CGCGAGCAAUAUUACGGUCC	low interval
CUCCAGCAAUAUUACGAGGA	middle interval
CCAUAGCAAUAUUACGUCGC	low interval
ACUUAGCAAUAUUACGAUUC	middle interval
CUGAAGCAAUAUUACGGAUA	low interval
CUAGAGCAAUAUUACGACAG	high interval
AAAAAGCAAUAUUACGACAU	high interval
GCGCAGCAAUAUUACGUAGA	middle interval
CCUCAGCAAUAUUACGAUAG	high interval
AGCUAGCAAUAUUACGUUCA	high interval
UUAGAGCAAUAUUACGCAGA	high interval
GGUGAGCAAUAUUACGCACA	high interval
ACUUAGCAAUAUUACGUCAC	low interval
CCUCAGCAAUAUUACGGUUA	low interval
AACCAGCAAUAUUACGACAC	high interval
GAACAGCAAUAUUACGCGUU	low interval
GGGCAGCAAUAUUACGACGC	high interval
AAAGAGCAAUAUUACGGAAU	middle interval
AUGGAGCAAUAUUACGCGGA	middle interval
UGAUAGCAAUAUUACGUCAA	middle interval
GCUCAGCAAUAUUACGGAAA	high interval
GGUAAGCAAUAUUACGCAUU	high interval
GUCUAGCAAUAUUACGGUGA	middle interval
UCGAAGCAAUAUUACGCGCA	high interval

Origin of measurements: the supplement of paper PMC7877785
